assay: Optical properties of the dyes (absorbance, emission, extinction coefficient, quantum efficiency); type: physicochemical

molecule | λ(abs) (nm)
COc1cc(C(C)OC(=O)Oc2ccc([N+](=O)[O-])cc2)c([N+](=O)[O-])cc1OCCNC(=O)C(CS(=O)(=O)[O-])NC1=C(/C=C2/N(C)c3ccccc3C2(C)C)C(=O)/C1=C\C1=[N+](C)c2ccccc2C1(C)C (stereo not shown) [Compound 230] | 646
CN(CCCCCC(=O)O)CCNC(=O)C(CS(=O)(=O)[O-])NC1=C(/C=C2/N(C)c3ccccc3C2(C)C)C(=O)/C1=C\C1=[N+](C)c2ccccc2C1(C)C (stereo not shown) [Compound 222] | 644
COc1cc(C(C)O)c([N+](=O)[O-])cc1OCCN(C)CCNC(=O)C(CS(=O)(=O)[O-])NC1=C(/C=C2/N(C)c3ccccc3C2(C)C)C(=O)/C1=C\C1=[N+](C)c2ccccc2C1(C)C (stereo not shown) [Compound 227] | 644
CN1/C(=C/C2=C([O-])C(=C/C3=[N+](C)c4ccccc4C3(C)C)/C2=O)C(C)(C)c2ccccc21 [Compound 220] | 629
